Data credit: ChEMBL document CHEMBL1201862

- Test system: SK-OV-3
- protocol-details: NCI tumour cell line growth inhibition, 48 h
Activity calls are given as the source filed them. Cut-off read from the data, not from the text of the source: active = GI50 up to about 1.1 µM and inactive = higher.
Could you please report measured GI50 for the items listed next?

Ask: Form field: reported GI50 of COc1ccc(C(=O)O/N=C2/CCCCC2CN(C)C)cc1 (stereo unspecified)
Reply: > 100 µM (inactive)

Ask: What does the data say about its GI50? Entry: `CCOc1cc(NC(C)=O)ccc1C(=O)N/N=C/c1ccco1`
Reply: > 100 µM (inactive)

Ask: Entry `CC(=O)/C(=C/n1c(=S)[nH]c2ccccc21)C(=O)Nc1ccccc1C` : reported GI50 = ?
Reply: > 100 µM (inactive)

Ask: Name the recorded GI50 for Cc1cc(O)c2c(c1O)C(=O)c1cccc(O)c1C2=O [ISLANDICIN] .
Reply: > 100 µM (inactive)

Ask: For `CCOC(=O)CNC(=O)c1nc[nH]c1/N=N/N(C)C` , what is its reported GI50?
Reply: > 100 µM (inactive)

Ask: Record request: GI50 value, item `COc1ccc(C#CC(=O)O)c(OC)c1`
Reply: > 100 µM (inactive)

Ask: For CC(=O)ON(C(C)=O)C1C(COC(c2ccccc2)(c2ccccc2)c2ccccc2)OC2OC3(CCCC3)OC21 (stereo unspecified) , what is its reported GI50?
Reply: 5.53 µM (inactive)

Ask: Quick check: GI50 of `Cc1ccc(S(=O)(=O)n2c(-c3ccccc3)c(-c3ccccc3)c3ccccc32)cc1` ?
Reply: 5.32 µM (inactive)

Ask: Find the recorded GI50 belonging to `O=S(=O)(O)c1cccc2c(/N=N/c3c(O)ccc4ccccc34)cccc12` and report it.
Reply: > 100 µM (inactive)

Ask: Value lookup for GI50; key = `COc1cc(Nc2nc3cc(C(F)(F)F)ccc3nc2-c2ccccc2)cc(OC)c1OC`
Reply: 31.6 µM (inactive)

Ask: // query GI50 value for entry `Oc1nnnc2c1sc1ncccc12`
Reply: 85.1 µM (inactive)
